TEST DETAILS: HFrEF study Part 2 (MAD Cohorts A-D): plasma pharmacokinetics
Format: in vivo, human
RUN CONDITIONS: human, plasma, oral, 100 mg, MAD Cohort D, 100 mg BID (with food); individual subjects; read-out: AUCtau, Day 1
ENDPOINT: AUC
Number first, unit second.

Query string: I would be grateful if you could share the reported AUC for `Cn1cc(S(=O)(=O)[C@@](C)(F)C2CCN(C(=O)Nc3ccon3)CC2)c(C(F)F)n1` .
Result string: 11600 ng·h/mL

###

TEST DETAILS: Single ascending oral dose study in healthy volunteers: plasma pharmacokinetics
Type: in vivo, human
RUN CONDITIONS: human, plasma, oral, 350 mg; read-out: Half-Life Lambda Z, Median (converted)
ENDPOINT: half-life (h)
Report the figure in h without appending any unit label.

Query string: I would be grateful if you could share the reported half-life for Cn1cc(S(=O)(=O)[C@@](C)(F)C2CCN(C(=O)Nc3ccon3)CC2)c(C(F)F)n1 [Compound I] .
Result string: 14.5

###

TEST DETAILS: Single ascending oral dose study in healthy volunteers: plasma pharmacokinetics
Assay type: in vivo, human
RUN CONDITIONS: human, plasma, oral, 3 mg; read-out: Cmax, Median
ENDPOINT: Cmax (ng/mL)
Report the figure in ng/mL without appending any unit label.

Query string: I would be grateful if you could share the reported Cmax for `Cn1cc(S(=O)(=O)[C@@](C)(F)C2CCN(C(=O)Nc3ccon3)CC2)c(C(F)F)n1` .
Result string: 36.5

###

TEST DETAILS: Single ascending oral dose study in healthy volunteers: plasma pharmacokinetics
Type: in vivo, human
RUN CONDITIONS: human, plasma, oral, 25 mg, 12 Hours Postdose; 25 mg; read-out: Plasma concentration, Median
ENDPOINT: concentration at 12 h (ng/mL)
Report the figure in ng/mL without appending any unit label.

Query string: I would be grateful if you could share the reported concentration at 12 h for Cn1cc(S(=O)(=O)[C@@](C)(F)C2CCN(C(=O)Nc3ccon3)CC2)c(C(F)F)n1 [Compound I] .
Result string: 223

###

TEST DETAILS: Single ascending oral dose study in healthy volunteers: plasma pharmacokinetics
Type: in vivo, human
RUN CONDITIONS: human, plasma, oral, 100 mg; read-out: AUC0-∞, Geometric Mean
ENDPOINT: AUC(0-inf) (ng·h/mL)
Report the figure in ng·h/mL without appending any unit label.

Query string: I would be grateful if you could share the reported AUC(0-inf) for `Cn1cc(S(=O)(=O)[C@@](C)(F)C2CCN(C(=O)Nc3ccon3)CC2)c(C(F)F)n1` .
Result string: 21300

###

TEST DETAILS: Single ascending oral dose study in healthy volunteers: plasma pharmacokinetics
Type: in vivo, human
RUN CONDITIONS: human, plasma, oral, 350 mg; read-out: Cmax, Mean
ENDPOINT: Cmax (ng/mL)
Report the figure in ng/mL without appending any unit label.

Query string: I would be grateful if you could share the reported Cmax for `Cn1cc(S(=O)(=O)[C@@](C)(F)C2CCN(C(=O)Nc3ccon3)CC2)c(C(F)F)n1` .
Result string: 2820

###

TEST DETAILS: Single ascending oral dose study in healthy volunteers: plasma pharmacokinetics
Format: in vivo, human
RUN CONDITIONS: human, plasma, oral, 175 mg; read-out: AUC0-48, Median
ENDPOINT: AUC(0-t) (ng·h/mL)
Report the figure in ng·h/mL without appending any unit label.

Query string: I would be grateful if you could share the reported AUC(0-t) for `Cn1cc(S(=O)(=O)[C@@](C)(F)C2CCN(C(=O)Nc3ccon3)CC2)c(C(F)F)n1` .
Result string: 32700

###

TEST DETAILS: Food effect cross-over study, 200 mg (25 mg tablets), healthy volunteers: plasma pharmacokinetics
Assay type: in vivo, human
RUN CONDITIONS: human, plasma, oral, 2 hours postdose, Fed, read-out: Plasma concentration, Geometric Mean
ENDPOINT: concentration at 2 h (ng/mL)
Report the figure in ng/mL without appending any unit label.

Query string: I would be grateful if you could share the reported concentration at 2 h for `Cn1cc(S(=O)(=O)[C@@](C)(F)C2CCN(C(=O)Nc3ccon3)CC2)c(C(F)F)n1` .
Result string: 1470

###

TEST DETAILS: Single ascending oral dose study in healthy volunteers: plasma pharmacokinetics
Assay type: in vivo, human
RUN CONDITIONS: human, plasma, oral, healthy volunteers; read-out: terminal t1/2 (half-life) (converted)
Text: This example describes the first-in-human study of Compound I. Based on its mechanism of action, Compound I may offer a targeted therapy for patients with DCM caused by genetic or nongenetic mechanisms. […] The concentrations of Compound I in human plasma and urine were quantitated by high performance liquid chromatography with tandem mass spectrometric detection (LC MS/MS) (Biological sample analysis study report Alturas AD17-726). […]
ENDPOINT: half-life

Query string: I would be grateful if you could share the reported half-life for `Cn1cc(S(=O)(=O)[C@@](C)(F)C2CCN(C(=O)Nc3ccon3)CC2)c(C(F)F)n1` .
Result string: ~15 h

###

TEST DETAILS: Food effect cross-over study, 200 mg (25 mg tablets), healthy volunteers: plasma pharmacokinetics
Format: in vivo, human
RUN CONDITIONS: human, plasma, oral, 2 hours postdose, Fed, read-out: Plasma concentration, Median
ENDPOINT: concentration at 2 h
Number first, unit second.

Query string: I would be grateful if you could share the reported concentration at 2 h for `Cn1cc(S(=O)(=O)[C@@](C)(F)C2CCN(C(=O)Nc3ccon3)CC2)c(C(F)F)n1` .
Result string: 1160 ng/mL

###

TEST DETAILS: Single ascending oral dose study in healthy volunteers: plasma pharmacokinetics
Assay type: in vivo, human
RUN CONDITIONS: human, plasma, oral, 50 mg, 72 Hours Postdose; 50 mg; read-out: Plasma concentration, Geometric Mean
Source text: This example describes the first-in-human study of Compound I. Based on its mechanism of action, Compound I may offer a targeted therapy for patients with DCM caused by genetic or nongenetic mechanisms. […] The concentrations of Compound I in human plasma and urine were quantitated by high performance liquid chromatography with tandem mass spectrometric detection (LC MS/MS) (Biological sample analysis study report Alturas AD17-726). […]
ENDPOINT: concentration at 72 h (µg/mL)
Report the figure in µg/mL without appending any unit label.

Query string: I would be grateful if you could share the reported concentration at 72 h for `Cn1cc(S(=O)(=O)[C@@](C)(F)C2CCN(C(=O)Nc3ccon3)CC2)c(C(F)F)n1` .
Result string: 0.0135

###

TEST DETAILS: Single ascending oral dose study in healthy volunteers: plasma pharmacokinetics
Assay type: in vivo, human
RUN CONDITIONS: human, plasma, oral, 175 mg; read-out: AUC0-24, Mean
Excerpt: This example describes the first-in-human study of Compound I. Based on its mechanism of action, Compound I may offer a targeted therapy for patients with DCM caused by genetic or nongenetic mechanisms. […] The concentrations of Compound I in human plasma and urine were quantitated by high performance liquid chromatography with tandem mass spectrometric detection (LC MS/MS) (Biological sample analysis study report Alturas AD17-726). […]
ENDPOINT: AUC(0-t) (ng·h/mL)
Report the figure in ng·h/mL without appending any unit label.

Query string: I would be grateful if you could share the reported AUC(0-t) for `Cn1cc(S(=O)(=O)[C@@](C)(F)C2CCN(C(=O)Nc3ccon3)CC2)c(C(F)F)n1` .
Result string: 22300

###

TEST DETAILS: HFrEF study Part 2 (MAD Cohorts A-D): plasma pharmacokinetics
Type: in vivo, human
RUN CONDITIONS: human, plasma, oral, 50 mg, MAD Cohort B, 50 mg BID (with food); individual subjects; read-out: Cmax, SS
ENDPOINT: Cmax (ng/mL)
Report the figure in ng/mL without appending any unit label.

Query string: I would be grateful if you could share the reported Cmax for `Cn1cc(S(=O)(=O)[C@@](C)(F)C2CCN(C(=O)Nc3ccon3)CC2)c(C(F)F)n1` .
Result string: 2950

###

TEST DETAILS: HFrEF study Part 2 (MAD Cohorts A-D): plasma pharmacokinetics
Type: in vivo, human
RUN CONDITIONS: human, plasma, oral, 100 mg, MAD Cohort D, 100 mg BID (with food); Mean; read-out: Cmax, Day 1
ENDPOINT: Cmax (ng/mL)
Report the figure in ng/mL without appending any unit label.

Query string: I would be grateful if you could share the reported Cmax for Cn1cc(S(=O)(=O)[C@@](C)(F)C2CCN(C(=O)Nc3ccon3)CC2)c(C(F)F)n1 [Compound I] .
Result string: 1480

###

TEST DETAILS: Food effect cross-over study, 200 mg (25 mg tablets), healthy volunteers: plasma pharmacokinetics
Type: in vivo, human
RUN CONDITIONS: human, plasma, oral, 1 hour postdose, Fasted, read-out: Plasma concentration, Median
ENDPOINT: concentration at 1 h (ng/mL)
Report the figure in ng/mL without appending any unit label.

Query string: I would be grateful if you could share the reported concentration at 1 h for `Cn1cc(S(=O)(=O)[C@@](C)(F)C2CCN(C(=O)Nc3ccon3)CC2)c(C(F)F)n1` .
Result string: 1600

Hey, just so you know, these numbers are from patent US20220265629A1.
